test-name: soluble on expression in E. coli; label from the status in PepcDB or PDB records

>  <sequence-entry>
MSRIEQLISDIESYIDNCKYYPLSNVKIIVNKEQLEDMLTELRLKTPDEVKKYQKILSNKDAILADAKEQADAIINAAQIQTEELINEHEIMQRAYAQANELIEQATAQAQTILDNATEEANSIRYGAMQYTDDMLAKLQYIIEHSIKDNKEKYDSLLSGLENVLSVVNNNRNELSGIEENSTEESADTDASNETDSQSDDEE

>  <soluble on expression in E. coli>
not soluble

$$$$
>  <sequence-entry>
SVFDIYKIGVGPSSSHTVGPMKAGKEFIDDLRAMGKLRDITKITVDVYGSLSLTGKGHHTDIAIIMGLAGNSPEKVDIDSIPGFIARVEETERLPVGMHCHTVSFPREGGMNFHKTNLELHENGMQIHAWIDDEKVYSKTYYSIGGGFIVDEENFGK

>  <soluble on expression in E. coli>
soluble

$$$$
>  <sequence-entry>
EAEAISCGSPPPILNGRISYYSTPIAVGTVIRYSCSGTFRLIGEKSLLCITKDKVDGTWDKPAPKCQYFNKYSSCPEPIVPGGYKIRGSTPYRHGDSVTFACKTNFSMNGNKSVWCQANNMWGPTRLPTCVSVFPLEQKLIS

>  <soluble on expression in E. coli>
soluble

$$$$
>  <sequence-entry>
MGSDKIHHHHHHMTQYEVDIMYEVKLDAFNGPLDLLLHLIQKFEIDIYDIPMQALTEQYMQYVHAMKQLEINIASEYLVLASELLMIKSKMLLPQSTSDMDVDDDPREDLVGRLIEYQNYKEYTAILNDMKEERDFYFTKRPTDLSHLETDESWDPNHTIDLTELIVAYQRVKNRVELNTPKSVEIRKETFTIQQATEQVTSRLKDKDHFNFFSLFTFSEPIEQVVTHFLAILEMSKAGIINIEQQRNFEDINIIRGVNYHFG

>  <soluble on expression in E. coli>
not soluble

$$$$

* * *

test-name: soluble on expression in E. coli; label from the status in PepcDB or PDB records
measurement-name: soluble on expression in E. coli

>  <sequence-entry>
MSWIYDAHIHLSDPEYKSDIDMILNYMDLLKIKACCVSMDIETSNETMALYEKSKNVLPFIGIHPEMAQKSSEPVYELIEKNNEIISGIGEIGLDRTYINSEDEWEIQKDVFSKQLSLAEKFNKPVSIHSRKTLSDIFEILPSYKIPGILLHWFDGNKSQLKTAMENEYFVSYGPLLVYANDKQVLLSKTDPSRLLVETDGPVRFSHCFEYKTTEIMFVPSVLFCASKILHTSYENLLTQIEDNSKKFLGI

>  <observed-measurement>
soluble

$$$$
>  <sequence-entry>
MFALVLFVCYLDGGCEDIVVDVYNTEQQCLYSMSDQRIRQGGCFPIEDFIDGFWRPAQEYGDFLEHHHHHH

>  <observed-measurement>
soluble

$$$$
>  <sequence-entry>
MKRVALLAVGSFNPPTIAHLRMLEVARSHLETINTQVVEGIMSPVADSYNNKPTLIKSNFRIQMVRAATKSSDWIRADDWECTRTTWTRTIDVLRHHRELVQEKFGSDVGMMLVVGGDVVDSFTRILPDGSNLWNSSDIRTIITEFGLIVLSREGSNPLNTIQSMPAISEFCDRIIQVKDEVCPSGVSSTRLRAAIMNKKSIKYSTPDEVINFIRENNLYQKI

>  <observed-measurement>
not soluble

$$$$
>  <sequence-entry>
MGSDKIHHHHHHMNPINWLVLVATVAGRNGTLRVRLWRQMKAIGAAALRDGVYLLPARPELRQMLANWRDELLAADGMAHVLQVVEDDPATQAGWRALFDRSEAYQQWGEALAALLAQPPGAESDARRSLRQLRKELEAIAAIDFFAGESLKSARRQCNDAEKWLTRHYSPDEPLAVGGDIPRLELADYQQRLWATRARPWVDRVASAWLIRRFIDPAARFAWLTDVHACPAEALGFDFDGAAFTHIGERVTFEVLLASFGLEHDPALSRLGELVHALDVGGSVVPEGTGFEAVLGGSRSRIADDDLLLADISNVLDSLYAHFQEAARPQGSRAPTL

>  <observed-measurement>
not soluble

$$$$

Values compiled from the DeepSol protein solubility set.
